Source of measurements: PubChem BioAssay (NCI)

system: MDA-MB-468 breast; test: NCI-60 one-dose screen, 48 h (100 = growth as untreated, 0 = no growth, -100 = all killed); conditions: 10 µM unless noted
About 83,000 compounds went through this panel and 20% of them were active in at least one assay; those are over-represented in the sample as a whole. Calls of active or inactive are those of the source. Rule for the calls: active = growth percent below 10; inactive = the rest.
property_name: growth

Hi, could you look up growth for each item in my list?
1. CCOC(=O)/C(C#N)=C1/NNC(=Nc2cccnc2)S1
2. Cc1cc2nc3c4cc([N+](=O)[O-])cc([N+](=O)[O-])c4n(CCN(C)C)c3nc2cc1C
3. C/C(=C\CCc1ccsc1)CC/C=C(\C)CCCN1CCC(CO)CC1
4. CN[C@@H](C)C(=O)N[C@H]1CCS[C@H]2CC(C)(C)[C@@H](C(=O)N[C@H]3c4ccccc4C[C@H]3OCC#CC#CCO[C@@H]3Cc4ccccc4[C@@H]3NC(=O)[C@H]3N4C(=O)[C@@H](NC(=O)[C@H](C)NC)CCS[C@H]4CC3(C)C)N2C1=O
5. CC(CN)[C@@H]1CC[C@]2(CO)CC[C@]3(C)[C@H](CC[C@@H]4[C@@]5(C)CCC(NCCO)C(C)(C)[C@@H]5CC[C@]43C)[C@@H]12 (some centres undefined)
6. Cc1ccccc1/C=C/C(=O)c1cccc(OCCCOc2cccc(C(=O)/C=C/c3ccccc3C)c2)c1

output:
1: 95.3% (inactive); 2: 104% (inactive); 3: -27.3% (active); 4: 19.3% (inactive); 5: 11.8% (inactive); 6: 108% [3 µM] (inactive)
